B1: Retinoic acid receptor RXR-alpha, residues 132 to 208; numbered along this chain, P19793 (parent)
chain: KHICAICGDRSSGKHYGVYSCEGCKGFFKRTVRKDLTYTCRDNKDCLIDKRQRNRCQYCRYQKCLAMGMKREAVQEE

# Variants of: B1
# ASSAY_NAME: abundance fitness (aPCA) (normalised: wild type 0, dead -1); higher = more abundant; growth selection in yeast, the domain comes from the species named
# CONDITIONS: Homo sapiens
As shown below, each of these variants has a reported abundance fitness value.
VALUE_KIND: abundance fitness

{"VARIANT_ANNOTATION": "R33C", "VALUE_KIND": "abundance fitness", "REPORTED": -0.287}
{"VARIANT_ANNOTATION": "Y16A", "VALUE_KIND": "abundance fitness", "REPORTED": 0.011}
{"VARIANT_ANNOTATION": "D49A", "VALUE_KIND": "abundance fitness", "REPORTED": 0.009}
{"VARIANT_ANNOTATION": "R41I", "VALUE_KIND": "abundance fitness", "REPORTED": 0.041}
{"VARIANT_ANNOTATION": "G26S", "VALUE_KIND": "abundance fitness", "REPORTED": -0.087}
{"VARIANT_ANNOTATION": "R30V", "VALUE_KIND": "abundance fitness", "REPORTED": -0.353}
{"VARIANT_ANNOTATION": "Y19C", "VALUE_KIND": "abundance fitness", "REPORTED": -0.116}
{"VARIANT_ANNOTATION": "S12E", "VALUE_KIND": "abundance fitness", "REPORTED": 0.101}
{"VARIANT_ANNOTATION": "Y16C", "VALUE_KIND": "abundance fitness", "REPORTED": -0.013}
{"VARIANT_ANNOTATION": "H2T", "VALUE_KIND": "abundance fitness", "REPORTED": -0.026}
{"VARIANT_ANNOTATION": "H15C", "VALUE_KIND": "abundance fitness", "REPORTED": -0.081}
{"VARIANT_ANNOTATION": "Y16N", "VALUE_KIND": "abundance fitness", "REPORTED": -0.089}
{"VARIANT_ANNOTATION": "K1L", "VALUE_KIND": "abundance fitness", "REPORTED": -0.333}
{"VARIANT_ANNOTATION": "D45P", "VALUE_KIND": "abundance fitness", "REPORTED": -0.078}
{"VARIANT_ANNOTATION": "D9I", "VALUE_KIND": "abundance fitness", "REPORTED": -0.455}
{"VARIANT_ANNOTATION": "Y19M", "VALUE_KIND": "abundance fitness", "REPORTED": -0.015}
{"VARIANT_ANNOTATION": "C7N", "VALUE_KIND": "abundance fitness", "REPORTED": -0.728}
{"VARIANT_ANNOTATION": "G26H", "VALUE_KIND": "abundance fitness", "REPORTED": -0.021}
{"VARIANT_ANNOTATION": "G26A", "VALUE_KIND": "abundance fitness", "REPORTED": 0.002}
{"VARIANT_ANNOTATION": "G13Y", "VALUE_KIND": "abundance fitness", "REPORTED": 0.017}
{"VARIANT_ANNOTATION": "Y38V", "VALUE_KIND": "abundance fitness", "REPORTED": 0.001}
{"VARIANT_ANNOTATION": "K14C", "VALUE_KIND": "abundance fitness", "REPORTED": -0.027}
{"VARIANT_ANNOTATION": "V32I", "VALUE_KIND": "abundance fitness", "REPORTED": -0.083}
{"VARIANT_ANNOTATION": "S20W", "VALUE_KIND": "abundance fitness", "REPORTED": 0.045}
{"VARIANT_ANNOTATION": "C7K", "VALUE_KIND": "abundance fitness", "REPORTED": -1.29}
{"VARIANT_ANNOTATION": "C7H", "VALUE_KIND": "abundance fitness", "REPORTED": -0.942}
{"VARIANT_ANNOTATION": "C4A", "VALUE_KIND": "abundance fitness", "REPORTED": -0.895}
{"VARIANT_ANNOTATION": "C4L", "VALUE_KIND": "abundance fitness", "REPORTED": -0.999}
{"VARIANT_ANNOTATION": "K50V", "VALUE_KIND": "abundance fitness", "REPORTED": 0.052}
{"VARIANT_ANNOTATION": "C40K", "VALUE_KIND": "abundance fitness", "REPORTED": -0.504}
{"VARIANT_ANNOTATION": "L47R", "VALUE_KIND": "abundance fitness", "REPORTED": -0.109}
{"VARIANT_ANNOTATION": "H2K", "VALUE_KIND": "abundance fitness", "REPORTED": 0.096}
{"VARIANT_ANNOTATION": "Y19P", "VALUE_KIND": "abundance fitness", "REPORTED": 0.006}
{"VARIANT_ANNOTATION": "D35N", "VALUE_KIND": "abundance fitness", "REPORTED": -0.164}
{"VARIANT_ANNOTATION": "K29A", "VALUE_KIND": "abundance fitness", "REPORTED": 0.05}
{"VARIANT_ANNOTATION": "K1E", "VALUE_KIND": "abundance fitness", "REPORTED": -0.117}
{"VARIANT_ANNOTATION": "T31N", "VALUE_KIND": "abundance fitness", "REPORTED": -0.114}
{"VARIANT_ANNOTATION": "I48E", "VALUE_KIND": "abundance fitness", "REPORTED": -0.162}
{"VARIANT_ANNOTATION": "G17C", "VALUE_KIND": "abundance fitness", "REPORTED": -0.002}
{"VARIANT_ANNOTATION": "G13F", "VALUE_KIND": "abundance fitness", "REPORTED": -0.114}

These data points were gathered from the Human Domainome abundance scans (Beltran et al. 2025).
